Would you mind telling me the reported cell count of each entry?
assay: sensitizers of A549 cells to miR-34 induction, primary screen, imaging, A549 dox-inducible miR-34, nuclei and caspase counts (AID 1347080); settings: A549 miR-34 inducible, Hoechst nuclei count, 48 h; measured here: total cells with miR-34 induction; stronger effect = lower value

chemical_smiles=C[C@@H]1CC(=O)NN=C1c1ccc(NN=C(C#N)C#N)cc1 measured=8720

Hi team, please reply with cell count for each item in this list.
1. CC[C@H](C)C(=O)O[C@H]1C[C@H](O)C=C2C=C[C@H](C)[C@H](CC[C@@H](O)C[C@@H](O)CC(=O)O)[C@H]21
2. CC[C@]1(O)C[C@@H]2CN(CCc3c([nH]c4ccccc34)[C@@](C(=O)OC)(c3cc4c(cc3OC)N(C)[C@H]3[C@@](O)(C(=O)OC)[C@H](OC(C)=O)[C@]5(CC)C=CCN6CC[C@]43[C@@H]65)C2)C1
3. COc1ccc(COc2ccc(Cc3cnc(N)nc3N)cc2OC)cc1
4. CN(C)CCc1c[nH]c2ccc(C[C@H]3COC(=O)N3)cc12

*A*
[9020, 794, 7300, 11600]

###

test: decreased DLD-1 cellular survival, CellTiter-Glo luminescent readout, NPC compound collection, primary HTS (AID 1117346); conditions: DLD-1 viability, CellTiter-Glo luminescence; at 20 µM (top of the series)
Calls of active or inactive are those of the source.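 The calls were made as follows: active = compounds that lower survival of DLD-1 colon cancer cells in the luminescence readout, no cutoff given; inactive = the rest.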
Response enum: active, inactive

Illustrative cases are given below, each with its answer.
molecule=CC(C)=CCCC(C)=CCCC(C)=CCCC(C)=CCC1=C(C)C(=O)c2ccccc2C1=O group=inactive
molecule="CC(COc1ccccc1)N(CCCl)Cc1ccccc1 (centres undefined)" group=inactive
molecule=CNC(=O)c1cnn(-c2nc(N)c3ncn([C@@H]4O[C@H](CO)[C@@H](O)[C@H]4O)c3n2)c1 group=inactive

*Q* What outcome does the record of this test show for Oc1cc(O)cc(O)c1 ?
*A* inactive

*Q* Now consider OCCN1CCN(CCCN2c3ccccc3Sc3ccc(C(F)(F)F)cc32)CC1 and answer again.
*A* active

*Q* Now consider CC[C@H](C)C(=O)O[C@H]1C[C@H](O)C=C2C=C[C@H](C)[C@H](CC[C@@H](O)C[C@@H](O)CC(=O)O)[C@H]21 and answer again.
*A* inactive

###

assay: growth inhibition of DIPG glioma cells, dose response, cell-based, SU-DIPG-XIII, MIPE4.0, CellTiter-Glo, qHTS (AID 1347061); details: SU-DIPG-XIII viability, CellTiter-Glo ATP luminescence;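 note: cells exposed to compound for 48 hours before readout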
Results filed as inconclusive are left out. The source made the active and inactive calls. The limit is not given here; nearly all actives have AC50 up to about 37 µM.
Response enum: 1 (yes) for active, 0 (no) for inactive

Illustrative cases are given below, each with its answer.
chemical_smiles=NNC(=O)c1ccncc1 group="0 (no)"
chemical_smiles=CN(C)CCc1c[nH]c2ccc(C[C@H]3COC(=O)N3)cc12 group="0 (no)"
chemical_smiles=Cn1c(=O)c(Oc2ccc(F)cc2F)cc2cnc(NC3CCOCC3)nc21 group="0 (no)"
chemical_smiles=OCCN(CCO)c1nc(N2CCCCC2)c2nc(N(CCO)CCO)nc(N3CCCCC3)c2n1 group="1 (yes)"
chemical_smiles=O=C(O)c1cc(=O)c2c(OCC(O)COc3cccc4oc(C(=O)O)cc(=O)c34)cccc2o1 group="0 (no)"

*Q* What outcome does the record of this test show for CCOC(=O)N1CCC(=C2c3ccc(Cl)cc3CCc3cccnc32)CC1 ?
*A* 0 (no)

*Q* Now consider O=C(O)c1cccnc1 and answer again.
*A* 0 (no)

*Q* Now consider CC(=O)OCC(=O)[C@@]1(O)CC[C@H]2[C@@H]3CCC4=CC(=O)C=C[C@]4(C)[C@H]3[C@@H](O)C[C@@]21C and answer again.
*A* 0 (no)

*Q* Now consider CC1(C)O[C@@H]2C[C@H]3[C@@H]4CCC5=CC(=O)C=C[C@]5(C)[C@@]4(F)[C@@H](O)C[C@]3(C)[C@]2(C(=O)CO)O1 and answer again.
*A* 0 (no)

*Q* Now consider CCCCNc1cc(C(=O)O)cc(S(N)(=O)=O)c1Oc1ccccc1 and answer again.
*A* 0 (no)

###

experiment: HCT116 colon cancer cell growth inhibition, primary screen, CellTiter-Glo luminescence, NPC library (AID 1117342); conditions: at 20 µM (top of the series)
OBSERVED_PROPERTY: inhibition of viability (%)
One number for each entry, in %.

Consider the worked cases shown below.
molecule=C/C(=C(\CCO)SS/C(CCO)=C(\C)N(C=O)Cc1cnc(C)nc1N)N(C=O)Cc1cnc(C)nc1N measured=0.6
molecule=CO[C@@H]1[C@@H](O[C@@H]2O[C@H](C)[C@@H](O[C@H]3C[C@@](C)(O)[C@@H](O)[C@H](C)O3)[C@H](N(C)C)[C@H]2O)[C@@H](CC=O)C[C@@H](C)[C@@H](O[C@@H]2CC[C@H](N(C)C)[C@@H](C)O2)/C=C/C=C/C[C@@H](C)OC(=O)C[C@H]1OC(C)=O measured=23.2
molecule=O=C1CC2(CCCC2)CC(=O)N1 measured=7.1
molecule=Nc1ccc(S(=O)(=O)c2ccc(N)cc2)cc1 measured=1.3
molecule=CCN(CC)CCOC(=O)C1(c2ccccc2)CCCC1 measured=4

Hi team, please reply with inhibition of viability for each item in this list.
1. Nc1nc(N)c2nc(-c3ccccc3)c(N)nc2n1
2. O=C1Nc2ccccc2C1(c1ccc(O)cc1)c1ccc(O)cc1
3. Cc1onc(-c2c(Cl)cccc2Cl)c1C(=O)Cl
4. CC(C)(C)NCC(O)COc1ccccc1OCC1CCCO1 (centres undefined)

*A*
83
71.7
13.6
-6.3

###

assay: fluorescence interference in NS3h assay format, artefact control for HCV NS3 helicase inhibitor project, biochemical, NIH Clinical Collection (AID 743272); conditions: fluorescence interference counterscreen, stronger effect = lower value;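 note: HCV NS3 helicase with a Cy5 labelled single stranded DNA probe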
Would you mind telling me the reported fluorescence ratio of each entry?
One number for each entry.

Hi team, please reply with fluorescence ratio for each item in this list.
1. CC(CN1c2ccccc2Sc2ccccc21)N(C)C (centres undefined)
2. c1ccc(-c2ccc(C(c3ccccc3)n3ccnc3)cc2)cc1 (centres undefined)
3. NS(=O)(=O)c1cc2c(cc1C(F)(F)F)NCNS2(=O)=O
4. Cc1cccc(Nc2ccncc2S(=O)(=O)NC(=O)NC(C)C)c1
5. COc1ccccc1OCC(O)COC(N)=O (centres undefined)

*A*
[0.93, 1.04, 0.93, 1.02, 1]

###

assay: differential killing of epithelial or mesenchymal cells, primary screen, imaging, PC-3E GFP, TEM4-18 mCherry, co-culture (AID 1345086); conditions: imaging cell counts, measured here: epithelial PC-3E GFP cell survival, at 1 µM;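 note: cells exposed to compound for 72 h before imaging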
Would you mind telling me the reported normalised cell number of each entry?
One number for each entry.

compound=CCOC(=O)[C@H](CCc1ccccc1)N[C@@H](C)C(=O)N1Cc2ccccc2C[C@H]1C(=O)O measured=1.17
compound=O=S(=O)(O)CCS measured=1.08
compound=Fc1ccc([C@@H]2CCNC[C@H]2COc2ccc3c(c2)OCO3)cc1 measured=0.48
compound="OC(CCN1CCCCC1)(c1ccccc1)C1CCCCC1 (configuration not stated)" measured=0.92
compound=Nc1nc(N)c2nc(-c3ccccc3)c(N)nc2n1 measured=1

Hi team, please reply with normalised cell number for each item in this list.
1. COc1ccc2c(c1)c(CC(=O)O)c(C)n2C(=O)c1ccc(Cl)cc1
2. O=C1N=C(O)CN1/N=C/c1ccc(-c2ccc([N+](=O)[O-])cc2)o1

*A*
[0.91, 1.02]

Hi team, please reply with normalised cell number for each item in this list.
1. CC1Cc2ccccc2N1NC(=O)c1ccc(Cl)c(S(N)(=O)=O)c1 (configuration not stated)
2. CC(C)(C)NCC(O)c1cc(O)cc(O)c1 (configuration not stated)

*A*
1. 1.01
2. 0.91

Hi team, please reply with normalised cell number for each item in this list.
1. CCCSc1ccc2nc(NC(=O)OC)[nH]c2c1
2. CN(C)CCC[C@@]1(c2ccc(F)cc2)OCc2cc(C#N)ccc21
3. N[C@@H](C(=O)N[C@@H]1C(=O)N2C(C(=O)O)=C(Cl)CS[C@H]12)c1ccccc1

*A*
1: 0.26; 2: 1.13; 3: 0.9

###

assay: inhibition of endothelial tube formation, primary screen, imaging, VEGF stimulated, CD31 staining, tube area, NPC library (AID 1117340); conditions: VEGF-stimulated ADSC/ECFC co-culture, at 10 µM
The source made the active and inactive calls.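 The calls were made as follows: active = compound that reduces growth-factor-driven endothelial tube area in a mixed cell culture, no cutoff stated; inactive = the rest.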
Response enum: label 1 for active, label 0 for inactive

Illustrative cases are given below, each with its answer.
compound=CC1=C(/C=C/C(C)=C/C=C/C(C)=C/C(=O)O)C(C)(C)CCC1 group="label 0"
compound=CC[C@H](C)C(=O)O[C@H]1C[C@H](O)C=C2C=C[C@H](C)[C@H](CC[C@@H](O)C[C@@H](O)CC(=O)O)[C@H]21 group="label 0"
compound=CC(=O)Oc1ccc(C2(c3ccc(OC(C)=O)cc3)C(=O)Nc3ccccc32)cc1 group="label 1"
compound=CC(=O)N(CC(=O)N(C)C)c1ccccc1 group="label 0"
compound=NNC(=O)CP(=O)(c1ccccc1)c1ccccc1 group="label 0"
compound=O=S(c1cc(Cl)cc(Cl)c1O)c1cc(Cl)cc(Cl)c1O group="label 1"
compound=O=C1[C@@H]2[C@H]3CC[C@H](C3)[C@@H]2C(=O)N1CCCCN1CCN(c2ncccn2)CC1 group="label 0"
compound=CCCCC(=O)O[C@H]1CC[C@H]2[C@@H]3CCc4cc(O)ccc4[C@@H]3CC[C@]12C group="label 1"

*Q* What outcome does the record of this test show for COc1cc(NC(C)CCCN)c2ncccc2c1 (centres undefined) ?
*A* label 0

*Q* Now consider CN[C@H](CC(C)C)C(=O)N[C@H]1C(=O)N[C@@H](CC(N)=O)C(=O)N[C@H]2C(=O)N[C@H]3C(=O)N[C@H](C(=O)N[C@H](C(=O)O)c4cc(O)cc(O)c4-c4cc3ccc4O)[C@H](O)c3ccc(c(Cl)c3)Oc3cc2cc(c3O[C@@H]2OC(CO)[C@@H](O)[C@H](O)[C@@H]2O[C@H]2C[C@](C)(N)[C@H](O)[C@H](C)O2)Oc2ccc(cc2Cl)[C@H]1O (some centres undefined) and answer again.
*A* label 0

*Q* Now consider CCCCN(CCN(CCCC)C(=O)N1CCOCC1)C(=O)N1CCOCC1 and answer again.
*A* label 0

*Q* Now consider CN(C)CCCN1c2ccccc2Sc2ccc(Cl)cc21 and answer again.
*A* label 1

*Q* Now consider NC(=O)COCCN1CCN(C(c2ccccc2)c2ccc(Cl)cc2)CC1 (centres undefined) and answer again.
*A* label 0

*Q* Now consider CC12C=CC(=O)C=C1CCC1C2C(O)CC2(C)C1CCC2(O)C(=O)COP(=O)(O)O (centres undefined) and answer again.
*A* label 0

*Q* Now consider CCOC(=O)C(=O)CCCCCCl and answer again.
*A* label 0

*Q* Now consider CC(=O)O[C@@H]1CC2C3CCc4cc(OC(=O)c5ccccc5)ccc4C3CCC2(C)[C@H]1OC(C)=O (some centres undefined) and answer again.
*A* label 0

*Q* Now consider CCCCC(O)/C=C(C)/C=C/C=C/C(=O)N1CCCC1=O (centres undefined) and answer again.
*A* label 0

*Q* Now consider CCCCCCCCCCCCCC(=O)OC(C)C and answer again.
*A* label 0

*Q* Now consider O=C(O)c1ccc(OCCN2CCCCC2)cc1 and answer again.
*A* label 0
